Entry source: patent US20240150440A1

target: SARS-CoV-2 Delta Variant spike protein on pseudotyped lentivirus (SARS-CoV-2 Delta variant); assay: cell-based or functional assay
Please provide measured Pseudovirus neutralization IC50 for the entries that follow.
Phrase the answer as number then unit, nothing more needed.

// Pseudovirus neutralization IC50 lookup, binder = PP1146 MBP-5HVZ-PAPA-R2d-D3-H6 (VHH, Form: Dimer) VHH: QVQLVESGGGLVQPGGSLRLSCAASGHIFSINNAAWVRQAPGKSREGVATIHSGGGTYYSDSVKGRFTISRDNAKNTVYLQMNSLKPEDTAVYYCNAEVSTGAGSRGRVSDVYWGQGTQVTVSS , result: 4.17 nM

Form field Pseudovirus neutralization IC50, entry PP1147 MBP-5HVZ-PAPA-R5a-B7-H6 (VHH, Form: Dimer) VHH: QVQLVESGGGLVQPGGSLRLSCAASGAFFSYGAIHWFRQAPGKQREEVAAITSGGSTGYADSVKGRFTISRDNAKNTVYLQMNSLKPEDTAVYYCNAGVVWLPSNAAYNLWGQGTQVTVSS : 1.13 nM

Note to self: Pseudovirus neutralization IC50 recorded for PP1148 MBP-5HVZ-PAPA-R5a-C5-H6 (VHH, Form: Dimer) VHH: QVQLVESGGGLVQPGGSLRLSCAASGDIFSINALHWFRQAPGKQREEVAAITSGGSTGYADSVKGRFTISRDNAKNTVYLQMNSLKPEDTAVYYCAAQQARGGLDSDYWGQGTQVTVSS was 0.53 nM

The reported Pseudovirus neutralization IC50 of the binder PP1150 MBP-5HVZ-PAPA-R5b-G1-H6 (VHH, Form: Dimer) VHH: QVQLVESGGGLVQPGGSLRLSCAASGSIGQIVLVHWFRQAPGKQRELVAGITSPSSTYYADSVKGRFTISRDNAKNTVYLQMNSLKPEDTAVYYCNTELEGKTQGFTGKTVWYDYWGQGTQVTVSS was 0.43 nM

For PP1103 MBP-5HVZ-PAPA-RN-18-H6 (VHH, Form: Dimer) VHH: QVQLVESGGGLVQPGGSLRLSCAASGYYFQIVAMHWYRQAPGKEREGVAGITSTGSTYYGDSVKGRFTISRDNAKNTVYLQMNSLKPEDTAVYYCNAVSTDAQGAAEYWGQGTQVTVSS the binder record lists Pseudovirus neutralization IC50 as 2.49 nM

The recorded Pseudovirus neutralization IC50 for entry PP1897 Cerberbody (3-S3b-C8) (other, not shown: large carriers) chain 1: QVQLVESGGGLVQPGGSLRLSCAASGSIENIERMHWYRQAPGKQRELVAVIDSGGTTRYADSVKGRFTISRDNAKNTVYLQMNSLKPEDTAVYYCAAVWLTNAESTQEYWGQGTQVTVSSHHHHHH chain 2: QVQLVESGGGLVQPGGSLRLSCAASGSIENIERMHWYRQAPGKQRELVAVIDSGGTTRYADSVKGRFTISRDNAKNTVYLQMNSLKPEDTAVYYCAAVWLTNAESTQEYWGQGTQVTVSSTVILEYAHRLSQDILSDALQQWASHHHHHHHH equals 0.09 nM
